# viability at 28.5 h, 10 µM values compiled below
Assay: in vitro
Conditions: human, hela cells, % viability

# compound, viability at 28.5 h, 10 µM
records = [
    ("CCNS(=O)(=O)c1ccc(NC(=O)Nc2ccccc2OC)cc1 [CBK270331]", "87.8%"),
    ("CC(C)c1ccc(S(=O)(=O)Nc2cccc(SC(F)(F)F)c2)cc1 [CBK044581]", "99.5%"),
    ("N#C/C(=C\\c1ccccc1O)C(=O)Nc1sc2c(c1C(N)=O)CCCC2 [CBK263644]", "101%"),
    ("CN1CCC(C(=O)NC(=O)Nc2ccccc2F)CC1 [CBK034827]", "93.2%"),
    ("C#CCN(C1CCc2ccccc21)S(=O)(=O)c1cc(C(N)=O)n(C)c1 (centres unmarked) [CBK304287]", "95.1%"),
]

###

# viability at 28.5 h, 10 µM values compiled below
Experiment: in vitro
Conditions: human, hela cells, % viability

# compound, viability at 28.5 h, 10 µM (%)
records = [
    ("CCc1ccc2oc(-c3ccc(NC(=O)COc4ccc(Cl)cc4Cl)cc3O)nc2c1 [CBK263424]", 104),
    ("CC1CNCCN1C(=O)c1ccnc(N2CCN(C)CC2)c1 (centres unmarked) [CBK304122]", 88.6),
    ("COCCn1nnnc1C(c1cc2cc(C)ccc2[nH]c1=O)N1CCN(C(=O)c2ccco2)CC1 (centres unmarked) [CBK111562]", 80.3),
    ("CC(C)OC(=O)c1cc2c(ccn2-c2ccc(F)cc2)n1CCC#N [CBK123921]", 95),
    ("O=C(O)c1ccc2c(c1)C1C=CCC1C(c1cccc([N+](=O)[O-])c1)N2 (centres unmarked) [CBK287008]", 94.7),
    ("Cc1ccc(C2(C(=O)NCCCn3ccnc3C)CCOCC2)cc1 [CBK281588]", 91.6),
    ("COc1ccc(CCN[C@H]2CCC[C@@H]2O)cc1OC [CBK005354G]", 78.4),
    ("Fc1ccccc1-c1cn2ccnc2c(NCCc2cccnc2)n1 [CBK037473]", 88.1),
    ("O=C(NCc1ccco1)c1ccc(-c2ccoc2)nc1 [CBK156279]", 105),
    ("O=C(Nc1cccc(Cl)c1)N[C@H]1C[C@H]2C(=O)NC[C@@H](CCC(=O)N3CCCC3)N2C1 [CBK289003]", 96.1),
    ("CCN(CC)c1ccc(C(=O)Cn2c(=O)n(C(=O)c3cccc(S(C)(=O)=O)c3)c3ccccc32)cc1 [CBK106500]", 94.2),
    ("CN(CC(N)=O)c1nc(-c2cccnc2)nc2ccccc12 [CBK306346]", 87),
    ("COC1C(O)C(CO)OC1n1ccc(NC(=O)c2ccccc2)nc1=O (centres unmarked) [CBK201212]", 94.8),
    ("CCOC(=O)c1[nH]c2ccccc2c1NS(=O)(=O)c1ccc(OC)c(OC)c1 [CBK047421]", 86),
    ("Cc1cc(C)nc(N2CCC(CC(=O)NCc3ccccc3N3CCCC3)CC2)n1 [CBK286071]", 95.5),
    ("Cc1cc(Cl)ccc1OC(C)C(=O)NCc1ccccn1 (centres unmarked) [CBK265441]", 98.8),
    ("Cc1ccccc1OCCCn1cncc1-c1cn(C)nc1C [CBK281813]", 85.1),
    ("COC(=O)C(C)CSc1ccc(C(C)(C)C)cc1 (centres unmarked) [CBK010499]", 107),
    ("CCOc1cc(CNC2C3CC4CC(C3)CC2C4)cc(Cl)c1OCC(N)=O (centres unmarked) [CBK265734C]", 103),
    ("CN(C)S(=O)(=O)c1ccc(C(=O)Nc2ccc(N3CCOCC3)c(Cl)c2)cc1 [CBK267383]", 87.7),
    ("CC(=O)Nc1ccc(OCC(O)Cn2ncc3ccccc3c2=O)cc1 (centres unmarked) [CBK305567]", 105),
    ("CCCOC1CCCN(C(=O)c2ccc(-c3ccc(Cl)cn3)cc2)C1 (centres unmarked) [CBK306540]", 89.5),
    ("CC(C)C(Nc1nc2ncn(Cc3ccccc3)c2c(=O)[nH]1)C(=O)O (centres unmarked) [CBK261685]", 91.2),
    ("Cc1csc(C(Cc2ccsc2)NC(=O)CCc2ccno2)n1 (centres unmarked) [CBK285099]", 100),
    ("CCOC(=O)C(NC(=O)CC)(Nc1cc(C)on1)C(F)(F)F (centres unmarked) [CBK025721]", 117),
    ("Cc1ccc(S(N)(=O)=O)cc1N [CBK024851]", 109),
    ("Fc1ccc(Oc2nccnc2N2CCN(Cc3cccnc3)CC2)cc1 [CBK083011]", 87.5),
    ("O=C(O)CCn1ncc2ccccc21 [CBK262257]", 89.8),
    ("COC(=O)c1ccccc1NC(=O)CNS(=O)(=O)c1c(C)cc(C)cc1C [CBK265974]", 104),
    ("CC(C)NC(=O)N1CC[C@H](c2nc3ncccc3[nH]2)C1 [CBK289369]", 101),
    ("COc1ccc(-c2cnc(N)nc2C2CCCN(C(=O)CCCc3ccccc3)C2)cc1 (centres unmarked) [CBK286091]", 94.4),
    ("Cc1cc2ccccc2n1CC(=O)N1CCn2cnnc2C1 [CBK282209]", 108),
    ("C=CCn1c(SCC(=O)Nc2cccc(F)c2)nnc1-c1ccccc1O [CBK269620]", 83),
    ("Cc1ccc2[nH]c(SCC(=O)Nc3cccc(NC(=O)C45CC6CC(CC(C6)C4)C5)c3)nc2c1 [CBK265679]", 96.3),
    ("CCc1ccc(OCC(=O)NC(=S)Nc2cccc3nsnc23)cc1 [CBK267173]", 100),
    ("c1csc(-c2nn3c(Cn4cnc5ccccc54)nnc3s2)c1 [CBK268262]", 87.9),
    ("COc1ccc(CCNc2ncnc3c2cnn3-c2ccc(Cl)cc2)cc1OC [CBK265804]", 105),
    ("Cn1nc2c(cc1=O)CN(C(=O)c1cnc(C(C)(C)C)nc1)CC2 [CBK304293]", 96.5),
]
